Target: fibroblast activation protein (FAP; rhFAP, SLIN-tagged hFAP) (Homo sapiens)
Sequence (Q12884 35-760): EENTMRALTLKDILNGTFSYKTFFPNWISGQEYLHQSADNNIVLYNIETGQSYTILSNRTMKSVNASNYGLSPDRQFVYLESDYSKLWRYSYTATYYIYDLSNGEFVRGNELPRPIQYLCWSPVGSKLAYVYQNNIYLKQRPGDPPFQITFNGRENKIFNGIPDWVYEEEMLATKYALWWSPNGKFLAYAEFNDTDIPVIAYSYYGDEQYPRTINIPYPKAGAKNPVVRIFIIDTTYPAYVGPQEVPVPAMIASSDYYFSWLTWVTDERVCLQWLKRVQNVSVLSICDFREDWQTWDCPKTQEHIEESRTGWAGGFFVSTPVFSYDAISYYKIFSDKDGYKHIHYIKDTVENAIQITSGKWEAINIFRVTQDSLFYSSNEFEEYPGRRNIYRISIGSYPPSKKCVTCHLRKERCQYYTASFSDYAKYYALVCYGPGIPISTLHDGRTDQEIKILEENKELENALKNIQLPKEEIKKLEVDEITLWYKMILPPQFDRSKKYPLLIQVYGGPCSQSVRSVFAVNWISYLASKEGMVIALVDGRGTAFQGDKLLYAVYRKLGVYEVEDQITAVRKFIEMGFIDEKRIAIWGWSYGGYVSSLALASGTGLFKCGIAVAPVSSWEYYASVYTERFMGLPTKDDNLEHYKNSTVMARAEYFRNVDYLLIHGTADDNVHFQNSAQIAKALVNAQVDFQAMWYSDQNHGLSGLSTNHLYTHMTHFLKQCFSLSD
Assay: biochemical
Measured Ki values are reported for all entries that follow.
assay_endpoint: Ki

INSERT INTO results (molecule, meas_value) VALUES
  ('Nc1ccc2cc3ccc(N)cc3nc2c1 [Proflavine (hemisulfate)]', '26.7 µM'),
  ('COc1cc(C)c2c(Oc3cccc(C(F)(F)F)c3)c(OC)cc(NC(C)CCCN)c2n1 (stereo not shown) [Tafenoquine (Succinate)]', '16.3 µM'),
  ('O=c1cc(-c2ccccc2)oc2cc(O)c(O)c(O)c12 [Baicalein]', '36.8 µM'),
  ('CC(C)(C)OC(=O)N[C@H]1CCCCC/C=C\[C@@H]2C[C@@]2(C(=O)NS(=O)(=O)C2CC2)NC(=O)[C@@H]2C[C@@H](OC(=O)N3Cc4cccc(F)c4C3)CN2C1=O [Danoprevir]', '19.3 µM'),
  ('Cc1ncc(NC(=O)c2ccc(CN3CCN(C)CC3)c(C(F)(F)F)c2)cc1Nc1nccc(-c2cccnc2)n1 [Flumatinib (mesylate)]', '12.2 µM'),
  ('CN1Cc2c(Cl)cc(Cl)cc2[C@H](c2cccc(S(=O)(=O)NCCOCCOCCNC(=O)NCCCCNC(=O)NCCOCCOCCNS(=O)(=O)c3cccc([C@@H]4CN(C)Cc5c(Cl)cc(Cl)cc54)c3)c2)C1 [Tenapanor]', '24.9 µM'),
  ('NC(=O)c1cccc2cn(-c3ccc([C@@H]4CCCNC4)cc3)nc12 [Niraparib (tosylate)]', '16.3 µM');
